System: NCI-H211 tumor spheroids, viability percent test/control
experiment.summary: Anticancer human tumor NCI-H211 cell line growth inhibition; active = viability on the fitted dose curve at most 10% of control; inactive = the rest;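 note: spheroids exposed to agents for seven days before readout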
particulars: second compound 3.16 µM; first compound 0.3 µM; spheroids with HUVEC and MSC
Just give me one of these, please: Yes for active, No for inactive

compound	category.label
Cn1ncnc1[C@H]1c2n[nH]c(=O)c3cc(F)cc(c23)N[C@@H]1c1ccc(F)cc1 + Cn1nnc2c(C(N)=O)ncn2c1=O	Yes
O=C(c1cc(Cc2n[nH]c(=O)c3ccccc23)ccc1F)N1CCN(C(=O)C2CC2)CC1 + Cn1nnc2c(C(N)=O)ncn2c1=O	No
CNCc1ccc(-c2cc(-c3nc(-c4ccc(S(=O)(=O)C(C)C)cc4)cnc3N)on2)cc1 + Cn1nnc2c(C(N)=O)ncn2c1=O	Yes

Alright, here's another compound for you.
stdin: Fill in: this test's call for Cc1sc2c(c1C)C(c1ccc(Cl)cc1)=NC(CC(=O)Nc1ccc(O)cc1)c1nnc(C)n1-2 (centres undefined) + Cn1nnc2c(C(N)=O)ncn2c1=O is ___
stdout: Yes

###

The following compounds are shown together with reported viability, T/C values.
Tested on: NCI-H211 tumor spheroids, viability percent test/control
experiment.summary: Anticancer human tumor NCI-H211 cell line growth inhibition;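 note: spheroids exposed to agents for seven days before readout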
particulars: second compound 0.003 µM; first compound 0.316 µM; hits give low values; spheroids with HUVEC and MSC
A number alone suffices; assume %.

// known answers, use as guide
compound	viability, T/C / %
CC(C)n1c(=O)n(C)c2cnc3cc(F)c(-c4ccc(OCCCN5CCCCC5)nc4)cc3c21 + CC[C@@]1(O)C(=O)OCc2c1cc1n(c2=O)Cc2cc3c(CN(C)C)c(O)ccc3nc2-1	20
Cc1cc(C)c(CNC(=O)c2cc(-c3ccc(CN4CCOCC4)cc3)cc3c2cnn3C2CCCC2)c(=O)[nH]1 + COc1cc2c(cc1O)CCNC21CSC2c3c(OC(C)=O)c(C)c4c(c3C(COC1=O)N1C(O)C3Cc5cc(C)c(OC)c(O)c5C(C21)N3C)OCO4	0.11
COc1cc(C)[nH]c(=O)c1CN1CCc2c(Cl)cc(C(OC)C3COC3)c(Cl)c2C1=O (centres undefined) + CC[C@@]1(O)C(=O)OCc2c1cc1n(c2=O)Cc2cc3c(CN(C)C)c(O)ccc3nc2-1	94.5
[2H]c1nc(C)nc([2H])c1-c1cc(NC[C@@H](C)c2cccc3c(C(=O)NC)ccnc23)ncn1 + COc1cc2c(cc1O)CCNC21CSC2c3c(OC(C)=O)c(C)c4c(c3C(COC1=O)N1C(O)C3Cc5cc(C)c(OC)c(O)c5C(C21)N3C)OCO4	0.19
[2H]c1nc(C)nc([2H])c1-c1cc(NC[C@@H](C)c2cccc3c(C(=O)NC)ccnc23)ncn1 + CC[C@@]1(O)C(=O)OCc2c1cc1n(c2=O)Cc2cc3c(CN(C)C)c(O)ccc3nc2-1	49.7
CC1COCCN1c1cc(-c2ccnn2C)c2ccnc(-c3ccn[nH]3)c2n1 (centres undefined) + COc1cc2c(cc1O)CCNC21CSC2c3c(OC(C)=O)c(C)c4c(c3C(COC1=O)N1C(O)C3Cc5cc(C)c(OC)c(O)c5C(C21)N3C)OCO4	0.31

stdin: Report viability, T/C for CC1COCCN1c1cc(-c2ccnn2C)c2ccnc(-c3ccn[nH]3)c2n1 (centres undefined) + CC[C@@]1(O)C(=O)OCc2c1cc1n(c2=O)Cc2cc3c(CN(C)C)c(O)ccc3nc2-1
stdout: 1.59

stdin: Check the records and state viability, T/C for Cc1cc(C)c(CNC(=O)c2cc(-c3ccc(CN4CCOCC4)cc3)cc3c2cnn3C2CCCC2)c(=O)[nH]1 + CC[C@@]1(O)C(=O)OCc2c1cc1n(c2=O)Cc2cc3c(CN(C)C)c(O)ccc3nc2-1
stdout: 74.2

stdin: Let me know recorded viability, T/C for COc1ccc([C@@H](O)c2cc(-c3ncnc4cc(N5CCOCC5)ccc34)c(F)cc2Cl)nn1 + COc1cc2c(cc1O)CCNC21CSC2c3c(OC(C)=O)c(C)c4c(c3C(COC1=O)N1C(O)C3Cc5cc(C)c(OC)c(O)c5C(C21)N3C)OCO4 , thanks.
stdout: 0.1
